Biological target: IRAK1 (Homo sapiens)
Construct: purchased BPS Bioscience Inc. 40202
Sequence (P51617 whole entry): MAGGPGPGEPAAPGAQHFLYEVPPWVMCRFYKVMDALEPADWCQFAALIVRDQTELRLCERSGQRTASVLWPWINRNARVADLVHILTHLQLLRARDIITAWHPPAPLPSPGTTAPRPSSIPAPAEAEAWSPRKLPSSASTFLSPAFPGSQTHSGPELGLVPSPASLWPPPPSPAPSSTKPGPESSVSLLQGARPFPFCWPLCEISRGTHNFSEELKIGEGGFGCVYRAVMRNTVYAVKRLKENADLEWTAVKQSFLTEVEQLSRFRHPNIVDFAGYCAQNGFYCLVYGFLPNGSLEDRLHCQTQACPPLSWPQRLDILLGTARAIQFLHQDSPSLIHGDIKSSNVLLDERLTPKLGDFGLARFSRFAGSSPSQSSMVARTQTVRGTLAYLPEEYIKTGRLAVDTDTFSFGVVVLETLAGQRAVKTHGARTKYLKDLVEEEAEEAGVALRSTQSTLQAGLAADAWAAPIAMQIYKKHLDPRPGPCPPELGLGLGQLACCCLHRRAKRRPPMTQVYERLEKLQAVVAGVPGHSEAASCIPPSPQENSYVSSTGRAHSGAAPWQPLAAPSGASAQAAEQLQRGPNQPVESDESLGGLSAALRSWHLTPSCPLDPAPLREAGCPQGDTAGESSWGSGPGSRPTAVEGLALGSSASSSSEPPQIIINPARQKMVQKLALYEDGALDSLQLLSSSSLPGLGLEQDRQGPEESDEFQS
Assay: LanthaScreen Eu Kinase Binding Assay for IRAK1, hit dose-response assay (DRC)
Settings: 8-point curve from 30 μM, triplicates, 4PL fit; read-out: DRC result, IC50
Description: The experimental method of LanthaScreen^TM Eu Kinase Binding Assay for IRAK1 was developed based on the Invitrogen^TM IRAK1-GST LanthaScreen^TM binding assay. Purified recombinant IRAK1-His (cat. # 40202) was purchased from BPS Bioscience Inc. (San Diego, CA, USA). […] The plate was then peeled and read on a PHERAstar® FSX (BMG LABTECH Inc., Cary, NC, USA) with a LanthaScreen^TM module at 340/615, 665 nm. The TR-FRET ratio (acceptor emission/donor emission x 10,000) was used as the readout. […]
Listed below: pIC50 values for each entry.
Remember the convention: pIC50 equals -log10 of concentration in molar.

Request: Output pIC50 of Cc1nc(Nc2ncc(F)c(-c3cc(F)c4nc(C)n(C(C)C)c4c3)n2)ccc1N1CCN(C(C)C)CC1
Result: 7.70

Request: Note pIC50 for the compound shown: CC(C)(C)c1cc(NC(=O)NCc2ccc(-c3cnc4cc(-c5ccncc5)ccn34)cc2)n[nH]1
Result: 7.00

Request: Return pIC50 for the following compound: CNc1cc2c(cn1)cc(-c1ccc(F)c(NC(=O)Nc3cc(C(C)(C)C)nn3C)c1)c(=O)n2C(C)C
Result: 7.05

Request: State, in one line, measured pIC50 of CCN1CCN(Cc2ccc(Nc3ncc(F)c(-c4cc(F)c5nc(C)n(C6CC6)c5c4)n3)nc2)CC1
Result: 7.22

In the following, a different compound is considered.
Request: Find the measured pIC50 of CC(C)Cc1ccnc(NC(=O)Cc2ccc(-c3cnc4cc(-c5ccncc5)ccn34)cc2F)c1 and report it.
Result: 7.30

----------
Target: IRAK1 (Homo sapiens)
Construct: purchased BPS Bioscience Inc. 40202
Experiment: LanthaScreen Eu Kinase Binding Assay for IRAK1, hit dose-response assay (DRC)
Conditions: 8-point curve from 30 μM, triplicates, 4PL fit; read-out: DRC result, pIC50 (converted)
REPORTED METRIC: IC50
Remember to put the unit after the number in your answer.

Worked examples, 3 compounds total:
Request: Supply measured IC50 of CNc1cc2c(cn1)cc(-c1ccc(F)c(NC(=O)Nc3cc(C(C)(C)C)nn3C)c1)c(=O)n2C(C)C in your reply.
Result: 91.2 nM

Request: Supply reported IC50 belonging to this compound: CCN1CCN(Cc2ccc(Nc3ncc(F)c(-c4cc(F)c5nc(C)n(C6CC6)c5c4)n3)nc2)CC1
Result: 63.1 nM

Request: // fetch IC50 given entry Cc1nc(Nc2ncc(F)c(-c3cc(F)c4nc(C)n(C(C)C)c4c3)n2)ccc1N1CCN(C(C)C)CC1
Result: 19.1 nM

Kindly consider the entry below.
Request: Return IC50 (reported value) for this compound: CC(C)Cc1ccnc(NC(=O)Cc2ccc(-c3cnc4cc(-c5ccncc5)ccn34)cc2F)c1
Result: 52.5 nM
